Molecular target: T1, recombinant human CD33 protein (Sino Biologicals) (human, UniProt P20138 18-259)
T1 construct: Bought protein; also called recombinant CD33
T1 sequence (P20138 18-259 limits assumed): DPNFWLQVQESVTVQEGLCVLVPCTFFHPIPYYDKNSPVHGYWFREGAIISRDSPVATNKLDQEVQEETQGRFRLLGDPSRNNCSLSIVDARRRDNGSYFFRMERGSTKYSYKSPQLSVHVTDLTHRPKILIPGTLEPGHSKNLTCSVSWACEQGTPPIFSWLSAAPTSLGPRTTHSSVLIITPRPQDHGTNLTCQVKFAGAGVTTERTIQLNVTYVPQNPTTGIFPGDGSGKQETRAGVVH
Assay: BLI (ForteBio), antibody on anti-human Fc sensor, CD33 10 nM
Protocol: Affinity parameters of the antibody variants for human CD33 were measured by BioLayer Interferometry in a ForteBio assay according to standard techniques (Estep et al. (2013) MAbs 5(2): 270-8) and were compared to those of the parental antibody (antibody 6C7H8) and the parental humanized antibody (antibody 6C71H5). Briefly, the antibodies were captured on anti-human Fc Biosensors (Pall ForteBio). […] Apparent affinity constants (KD) were calculated from the ratio kd/kₐ.
Recorded metric: kon (M⁻¹ s⁻¹)
Your answer is read as M⁻¹ s⁻¹, so omit the unit and give the number.

[[record]]
binder = "anti-CD33 antibody 6C7H24 (antibody, V domains shown, VH/VL only) VH: EVQLVESGGGLVQPGGSLRLSCAGSGFTFSNYNMNWVRQAPGKGLEWVAEIRLKSNNYVTNYAASVKGRFTISRDDSKNSVYLQMNSLKTEDTGVYYCTRAGYYVPFAYWGQGTLVTVSS VL: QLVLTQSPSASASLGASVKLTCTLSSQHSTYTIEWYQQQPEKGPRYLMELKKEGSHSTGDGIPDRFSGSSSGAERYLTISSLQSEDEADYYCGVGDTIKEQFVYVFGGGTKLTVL"
recorded_metric = "kon"
readout_value = "1.37e+06"

[[record]]
binder = "anti-CD33 antibody 6C7H21 (antibody, V domains shown, VH/VL only) VH: EVQLVESGGGLVQPGGSLRLSCAGSGFTFSNYQMNWVRQAPGKGLEWVAEIRLKSNNYVTNYAASVKGRFTISRDDSKNSVYLQMNSLKTEDTGVYYCTRAGYYVPFAYWGQGTLVTVSS VL: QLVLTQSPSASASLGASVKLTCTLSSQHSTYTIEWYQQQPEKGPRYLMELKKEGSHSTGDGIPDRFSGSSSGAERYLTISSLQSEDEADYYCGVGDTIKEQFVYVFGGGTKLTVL"
recorded_metric = "kon"
readout_value = 498000

[[record]]
binder = "anti-CD33 antibody 6C7H22 (antibody, V domains shown, VH/VL only) VH: EVQLVESGGGLVQPGGSLRLSCAGSGFTFSNYTMNWVRQAPGKGLEWVAEIRLKSNNYVTNYAASVKGRFTISRDDSKNSVYLQMNSLKTEDTGVYYCTRAGYYVPFAYWGQGTLVTVSS VL: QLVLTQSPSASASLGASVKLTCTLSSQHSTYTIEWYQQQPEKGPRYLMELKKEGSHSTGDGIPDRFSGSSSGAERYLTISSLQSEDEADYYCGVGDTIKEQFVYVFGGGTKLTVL"
recorded_metric = "kon"
readout_value = "2.41e+06"

[[record]]
binder = "anti-CD33 antibody 6C7H14 (antibody, V domains shown, VH/VL only) VH: EVQLVESGGGLVQPGGSLRLSCAGSGFTFSNYAMNWVRQAPGKGLEWVAEIRLKSNNYVTNYAASVKGRFTISRDDSKNSVYLQMNSLKTEDTGVYYCTRAGYYVPFAYWGQGTLVTVSS VL: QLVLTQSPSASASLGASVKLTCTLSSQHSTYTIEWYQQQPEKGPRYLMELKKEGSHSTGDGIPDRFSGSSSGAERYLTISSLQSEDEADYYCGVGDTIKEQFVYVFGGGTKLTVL"
recorded_metric = "kon"
readout_value = 991000


Turning now to a further binder:
**Q:** # input binder: anti-CD33 antibody 6C7H17 (antibody, V domains shown, VH/VL only) VH: EVQLVESGGGLVQPGGSLRLSCAGSGFTFSNYYMNWVRQAPGKGLEWVAEIRLKSNNYVTNYAASVKGRFTISRDDSKNSVYLQMNSLKTEDTGVYYCTRAGYYVPFAYWGQGTLVTVSS VL: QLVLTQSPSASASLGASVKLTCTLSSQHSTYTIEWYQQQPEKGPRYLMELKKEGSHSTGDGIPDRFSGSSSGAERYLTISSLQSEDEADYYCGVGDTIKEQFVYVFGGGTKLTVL ; wanted: its kon
**A:** 613000
